# assayed.system: Left-right determination factor 2 (Homo sapiens)
# assay: small molecules binding LEFTY2 protein – biochemical, small-molecule microarray, 635 nm fluorescence scan, primary screen (AID 1110)
# experimental.parameters: higher = more signal
experimental.readout: composite z-score

[[record]]
molecule = "O=C1N(CCS(=O)(=O)c2ccccc2)Cc2ccccc2C[C@@]12COC(c1ccc(OCCCO)cc1)=N2"
experimental_readout = "composite z-score"
measured_value = 0.906

[[record]]
molecule = "CCCC=C(CCC)[C@@H](NS(=O)(=O)CC)c1ccccc1"
experimental_readout = "composite z-score"
measured_value = -0.0866

[[record]]
molecule = "C=C[C@@H](O)[C@H]1CC(c2ccccc2)=NO1"
experimental_readout = "composite z-score"
measured_value = 0.277

[[record]]
molecule = "CC(C)CCC[C@@H](C)[C@H]1CC[C@@]2(C)C3=C(CC[C@]12C)[C@@]1(C)CC[C@H](OC(=O)c2ccc(N)cc2)C(C)(C)C1CC3 (stereo partly drawn)"
experimental_readout = "composite z-score"
measured_value = 1.2

[[record]]
molecule = "COc1ccc([Si](C)(C)[C@@H]2[C@@H](CCO)O[C@]3(C(=O)N(Cc4ccccc4)c4ccc(N5CCCCC5=O)cc43)[C@H]2C)cc1"
experimental_readout = "composite z-score"
measured_value = 0.489

[[record]]
molecule = "C[N+](C)(C)CCCCCCNC(=O)[C@@H]1C[C@@H]2C(=O)NCC(=O)N2[C@@H]1c1cccc(OCCO)c1"
experimental_readout = "composite z-score"
measured_value = 0.695

[[record]]
molecule = "NC(=O)[C@@H]1[C@H]2C(=O)O[C@H](c3ccccc3)[C@H](c3ccccc3)N2[C@H](c2ccccc2OCCO)[C@@]12C(=O)Nc1ccc(C#CCCO)cc12"
experimental_readout = "composite z-score"
measured_value = -0.388

[[record]]
molecule = "CN1C(=O)C2C=CC(C(O)C3CCCCC3)N(N(c3ccccc3)c3ccccc3)C2C1=O (stereo not drawn)"
experimental_readout = "composite z-score"
measured_value = -0.939


====

# Tested on: Sonic hedgehog protein (Shh)
# assay: Sonic hedgehog microarray binding compounds – biochemical, small-molecule microarray, 635/667 nm fluorescence, primary screen (AID 1151);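 further: Shh protein binding to compounds spotted on small-molecule microarray slides; score combines spot fluorescence intensity with signal-to-noise across triplicate slides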
# experimental.parameters: 635 nm fluorescence, higher = more signal
Readings of composite z-score for the listed compounds
experimental.readout: composite z-score

[[record]]
compound = "CCOC(=O)C[C@H]1[C@H](OC(=O)c2cc3ccccc3oc2=O)[C@@H](NC(=O)c2ccc3ccccc3n2)c2cc(OCCCO)ccc2N1C(=O)c1ccc2ccccc2n1"
measured_value = 1.46

[[record]]
compound = "Cc1ccc(F)cc1S(=O)(=O)N[C@@H]1CCN(C(=O)c2ccc(OC(C)C)cc2)C1"
measured_value = 0.975

[[record]]
compound = "C[N+](C)(C)CCCCCCNC(=O)[C@@H]1C[C@@H]2C(=O)NCC(=O)N2[C@@H]1c1cccc(OCCO)c1"
measured_value = 2.16

[[record]]
compound = "NC(=O)NCC#Cc1ccc2c(c1)[C@]1(C(=O)N2)[C@H](c2ccc(OCCO)cc2)N2[C@H](c3ccccc3)[C@H](c3ccccc3)OC(=O)[C@H]2[C@@H]1C(=O)N1CCN(c2ncccn2)CC1"
measured_value = 1.5

[[record]]
compound = "C=CCOc1ccc([C@@H]2CC=C(C(=O)OCC)[C@H](c3cccc(Br)c3)N2S(=O)(=O)c2ccc(C)cc2)cc1"
measured_value = 0.0537

[[record]]
compound = "COC(=O)[C@@]1(Cc2ccccc2)[C@H]2c3cc(C(=O)N(C)C)n(Cc4ccc(O)c(OC)c4)c3C[C@H]2CN1C(=O)c1ccccc1"
measured_value = -0.851

[[record]]
compound = "C=CCN1C(=O)[C@@]2(O[C@@H](CCn3cc([C@H](O)c4ccccc4)nn3)[C@H]([Si](C)(C)c3ccc(OC)cc3)[C@H]2C)c2cc(NC(=O)c3ccc(OC)cc3)ccc21"
measured_value = 1.32

[[record]]
compound = "CCN(CC)c1ccc(N2CC=CC34O[C@@H]5/C=C\\CCCOC(=O)C5[C@H]3C(=O)N(CCCCCCO)[C@@H]4C2=O)cc1 (stereo partly drawn)"
measured_value = 0.216

[[record]]
compound = "C=CCC(OC(C)=O)[C@@H]1[C@@H](N(Cc2ccc(-c3cccc(C(F)(F)F)c3)o2)C(=O)c2cccc3ccccc23)c2cc(OCCCO)ccc2N1C(=O)c1ccc(-c2ccccc2)cc1 (stereo partly drawn)"
measured_value = 1.06

[[record]]
compound = "C=CCNC(=O)[C@H]1[C@@H]2C(=O)O[C@@H](c3ccccc3)[C@@H](c3ccccc3)N2[C@@H](c2ccc(OCCO)cc2)[C@]12C(=O)N(C(=O)OCCOC)c1ccc(C#CC3=CCCCC3)cc12"
measured_value = 1.32

[[record]]
compound = "Cc1ccccc1C(O)C1C=CC2C(=O)N(Cc3ccccc3)C(=O)C2N1n1cnnc1 (stereo not drawn)"
measured_value = 0.59

[[record]]
compound = "COc1ccc(CCNC(=O)[C@@H]2c3ccccc3C(=O)N(Cc3ccccc3C(F)(F)F)[C@H]2c2ccc(CO)cc2)cc1"
measured_value = -0.25

[[record]]
compound = "CO[C@H]1O[C@H](CO)[C@@H](OC(=O)Nc2ccc(C(F)(F)F)cc2)[C@H](OC(=O)Nc2ccccc2)[C@H]1OC(=O)Nc1ccccc1"
measured_value = 1.2


====

# assayed.system: Dihydroorotate dehydrogenase (quinone), mitochondrial (Plasmodium falciparum (isolate 3D7))
# assay: inhibition of P. falciparum DHODH – biochemical, C-terminal His tag, absorbance 600 nm, primary screen (AID 1175);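 further: recombinant parasite enzyme with a five histidine tag at its C terminus; test concentration not given here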
# experimental.parameters: PfDHODH enzyme, DCIP absorbance 600 nm; higher = more signal, called active from +8 up or from −8 down
experimental.readout: composite z-score

[[record]]
molecule = "CC(C)NC(=O)[C@@H]1c2ccccc2C(=O)N(Cc2cc(C(F)(F)F)cc(C(F)(F)F)c2)[C@H]1c1ccc(CO)cc1"
measured_value = 0.357

[[record]]
molecule = "CCOC(=O)C[C@H]1[C@H](OC(=O)c2cc3ccccc3oc2=O)[C@@H](NC(=O)c2ccc3ccccc3n2)c2cc(OCCCO)ccc2N1C(=O)c1ccc2ccccc2n1"
measured_value = 0.315

[[record]]
molecule = "COc1ccc([Si](C)(C)[C@@H]2[C@@H](CCO)O[C@]3(C(=O)N(Cc4ccccc4)c4ccc(N5CCCCC5=O)cc43)[C@H]2C)cc1"
measured_value = -2.04

[[record]]
molecule = "C=CC[C@@]1(C(=O)NCC(O)CO)N=C(c2ccc(OCCCO)cc2)O[C@@H]1c1ccccc1 (stereo partly specified)"
measured_value = 0.358

[[record]]
molecule = "C=CCOC(=O)[C@@H]1[C@H]2C(=O)O[C@H](c3ccccc3)[C@H](c3ccccc3)N2[C@H](c2ccc(OCCOC(=O)[C@@H]3C[C@@H]4C(=O)N5CCC[C@H]5C(=O)N4[C@@H]3c3cccc(OCCO)c3)cc2)[C@@]12C(=O)Nc1ccc(I)cc12"
measured_value = -0.652

[[record]]
molecule = "CC(C)N1C(=O)c2ccccc2[C@](C)(C(=O)O)[C@@H]1c1ccc(CO)cc1"
measured_value = -0.218


====

# assay: probe aLAP1 signal on lysate-treated microarray – cell lysate, small-molecule microarray, COS7 lysate, primary screen (AID 1124);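 further: lysate comes from COS7 cells expressing LAP1 and is applied at 0.3 µg/mL; score merges spot fluorescence near 667 nm with signal-to-noise over triplicate slides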
# experimental.parameters: probe aLAP1, fluorescence, higher = more signal
Readings of composite z-score for the listed compounds
experimental.readout: composite z-score

[[record]]
compound = "Cc1cc(C)c(C(O)C2C=CC3C(=O)N(c4ccccc4)C(=O)C3N2Nc2ccc([N+](=O)[O-])cc2)c(C)c1 (centres undefined)"
measured_value = 0.893

[[record]]
compound = "NC(=O)NCC#Cc1ccc2c(c1)[C@]1(C(=O)N2)[C@H](c2ccc(O)cc2)N2[C@H](c3ccccc3)[C@H](c3ccccc3)OC(=O)[C@H]2[C@@H]1C(=O)NC[C@H](O)c1ccccc1"
measured_value = 0.469

[[record]]
compound = "C=CCC(OC(C)=O)[C@@H]1[C@@H](N(Cc2cccc3ccccc23)C(=O)c2ccc(C)cc2)c2cc(OCCCO)ccc2N1C(=O)c1ccc2ccccc2c1 (some centres undefined)"
measured_value = -0.27

[[record]]
compound = "C=C(COC)C(=O)CC[C@H](OC(=O)c1ccccc1-c1ccccc1C(=O)O)c1ccc(OCCO)cc1"
measured_value = 1.12

[[record]]
compound = "COC(=O)[C@@]1(Cc2ccccc2)[C@H]2c3cc(C(=O)N4CCCC4)n(Cc4ccccc4)c3C[C@H]2CN1C(=O)c1ccccc1"
measured_value = -0.0361

[[record]]
compound = "O=C1NC(=O)C2C1C=CC(C(O)c1ccc3c(c1)OCO3)N2Nc1ccc(Cl)cc1Cl (centres undefined)"
measured_value = 1.19

[[record]]
compound = "C[C@]12C(=O)N(CCCO)[C@@H]3C(=O)N(c4ccc(Cl)cc4)CC=CC31O[C@@H]1/C=C\\CCCOC(=O)C12 (some centres undefined)"
measured_value = 0.492

[[record]]
compound = "CCCCC=C[C@@H](NC(=O)CCc1ccccc1)c1ccccc1"
measured_value = 0.785

[[record]]
compound = "C[N+](C)(C)CCCC[C@@H]1NC(=O)[C@H]2C[C@@H](C(=O)NCCCCCCN)[C@@H](c3cccc(OCCO)c3)N2C1=O"
measured_value = 1.04

[[record]]
compound = "COC(=O)C(CC#Cc1ccc2c(c1)[C@]1(C(=O)N2)[C@H](c2ccccc2OCCO)N2[C@H](c3ccccc3)[C@H](c3ccccc3)OC(=O)[C@H]2[C@@H]1C(=O)Nc1nc2ccccc2s1)C(=O)OC"
measured_value = 0.379

[[record]]
compound = "CC(C)(C)N1CC=CC23O[C@@H]4C=CCCOC(=O)C4[C@H]2C(=O)N(CCCO)[C@@H]3C1=O (some centres undefined)"
measured_value = -0.0817

[[record]]
compound = "C=CCN1C(=O)[C@@]2(O[C@@H](CCn3cc([C@H](O)c4ccccc4)nn3)[C@H]([Si](C)(C)c3ccc(OC)cc3)[C@H]2C)c2cc(NC(=O)c3ccc(OC)cc3)ccc21"
measured_value = 0.0719

[[record]]
compound = "CC(C)[Si](C#C[Si](C(C)C)(C(C)C)C(C)C)(O[C@H](C)c1cn(Cc2cccc(Cl)c2)nn1)C(C)C"
measured_value = -0.34

[[record]]
compound = "CC(=O)NCCCC[C@@H]1NC(=O)[C@@H]2C[C@H](C(=O)NCCCC[N+](C)(C)C)[C@H](c3cccc(OCCO)c3)N2C1=O"
measured_value = 0.331

